Values compiled from patent US10100129B2.

Target: T1, CD32a-R131 (FcgRIIa-R131) (Homo sapiens, UniProt P12318, H167R)
T1 sequence (P12318 34-217 H167R limits assumed): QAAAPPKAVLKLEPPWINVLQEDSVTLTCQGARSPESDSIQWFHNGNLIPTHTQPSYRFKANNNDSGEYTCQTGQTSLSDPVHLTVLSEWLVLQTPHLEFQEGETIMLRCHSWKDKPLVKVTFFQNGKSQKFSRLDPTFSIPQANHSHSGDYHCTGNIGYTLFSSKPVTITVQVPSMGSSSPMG
Assay: SPR binding to FcgR-his: CD32a-R131
Conditions: 1 μM antibody, anti-his Fab captured FcgR-his
measured quantity: % Rmax, binding to hCD32a-R131 (%)
# number only, unit % dropped from output

Look over these answered cases.
{"molecule": "mAb13-IgG2.5 (protein, left off: another chain or arm of the molecule) constant: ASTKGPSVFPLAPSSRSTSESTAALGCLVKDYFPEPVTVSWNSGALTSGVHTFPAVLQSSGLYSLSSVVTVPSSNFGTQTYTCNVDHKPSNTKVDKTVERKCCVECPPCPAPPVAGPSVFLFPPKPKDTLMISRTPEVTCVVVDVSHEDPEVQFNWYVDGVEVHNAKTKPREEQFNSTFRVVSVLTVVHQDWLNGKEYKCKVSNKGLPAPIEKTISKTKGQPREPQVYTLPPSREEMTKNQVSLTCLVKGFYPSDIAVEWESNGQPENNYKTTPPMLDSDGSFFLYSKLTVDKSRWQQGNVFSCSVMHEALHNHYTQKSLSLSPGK", "measured quantity": "% Rmax, binding to hCD32a-R131", "value reported": 4}
{"molecule": "mAb6-IgG2.3 (protein, left off: another chain or arm of the molecule) constant: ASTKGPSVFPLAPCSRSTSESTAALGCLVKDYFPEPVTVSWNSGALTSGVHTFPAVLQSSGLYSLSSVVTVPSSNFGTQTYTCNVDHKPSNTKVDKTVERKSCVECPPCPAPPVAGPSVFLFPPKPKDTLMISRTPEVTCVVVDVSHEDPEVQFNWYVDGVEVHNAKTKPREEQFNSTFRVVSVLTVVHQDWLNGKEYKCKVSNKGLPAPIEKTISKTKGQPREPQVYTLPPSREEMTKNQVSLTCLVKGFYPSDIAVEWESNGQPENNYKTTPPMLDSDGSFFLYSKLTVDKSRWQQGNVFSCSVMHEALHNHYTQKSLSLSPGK", "measured quantity": "% Rmax, binding to hCD32a-R131", "value reported": 14}
{"molecule": "mAb11-IgG2.3 (protein, left off: another chain or arm of the molecule) constant: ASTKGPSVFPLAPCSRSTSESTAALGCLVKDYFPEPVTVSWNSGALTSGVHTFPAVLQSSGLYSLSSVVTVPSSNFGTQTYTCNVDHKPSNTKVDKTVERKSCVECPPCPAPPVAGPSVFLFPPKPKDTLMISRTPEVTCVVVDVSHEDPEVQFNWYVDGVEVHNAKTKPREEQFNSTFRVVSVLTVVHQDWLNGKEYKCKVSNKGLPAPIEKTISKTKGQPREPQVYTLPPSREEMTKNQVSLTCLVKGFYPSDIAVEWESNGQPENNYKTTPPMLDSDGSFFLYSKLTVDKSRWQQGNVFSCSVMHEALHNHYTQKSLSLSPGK", "measured quantity": "% Rmax, binding to hCD32a-R131", "value reported": 17}

Would you kindly look at the next entry?
Task item: Reported % Rmax, binding to hCD32a-R131 for mAb10-IgG2.3G1-AY-V27 (protein, left off: another chain or arm of the molecule) constant: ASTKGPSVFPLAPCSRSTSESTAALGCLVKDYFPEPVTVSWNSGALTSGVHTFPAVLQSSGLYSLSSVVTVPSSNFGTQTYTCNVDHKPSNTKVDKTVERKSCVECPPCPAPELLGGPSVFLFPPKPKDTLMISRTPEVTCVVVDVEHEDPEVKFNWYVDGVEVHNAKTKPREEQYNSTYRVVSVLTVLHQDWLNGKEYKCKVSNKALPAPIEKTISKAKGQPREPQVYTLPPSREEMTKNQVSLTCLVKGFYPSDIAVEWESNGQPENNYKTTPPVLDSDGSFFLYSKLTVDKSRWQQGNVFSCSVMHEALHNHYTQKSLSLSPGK : what is it?
Reply: 57
